Recorded values, source patent US11919883B2.

assay: Cyno liver microsome stability
Format: in vitro ADME, cynomolgus monkey
assay context: % Compound remaining at 65 min in cyno liver microsomes
measurement kind: Cyno LM Stability (%)

Past entries and their recorded results:
>>> print(df.to_string())
                                smiles_text  unit_tag  result_number
0  Fc1cc2nc(-c3cncnc3C(F)(F)F)n(C3CC3)c2cc1F         %             99
1          Fc1ccc2nc(-c3cncnc3)n(C3CC3)c2c1         %             70

a = Cc1ncncc1-c1nc2cc(F)c(F)cc2n1C1CC1
b = Fc1cc2nc(-c3cncnc3C(F)F)n(C3CC3)c2cc1F
In: Field: entry with larger Cyno LM Stability (options a / b ). When you have decided, please share the label of that item.
Out: b
(b: 106%, a: 72%)
